Each recorded value in this set is attributed to ChEMBL document CHEMBL3525928.

Task for the reader: assign each of the following compounds its reported uptake ratio at 0.05 h, 10 µM.
- Experimental system: OATP1B3 (Homo sapiens, UniProt Q9NPD5)
- Sequence (Q9NPD5 whole entry): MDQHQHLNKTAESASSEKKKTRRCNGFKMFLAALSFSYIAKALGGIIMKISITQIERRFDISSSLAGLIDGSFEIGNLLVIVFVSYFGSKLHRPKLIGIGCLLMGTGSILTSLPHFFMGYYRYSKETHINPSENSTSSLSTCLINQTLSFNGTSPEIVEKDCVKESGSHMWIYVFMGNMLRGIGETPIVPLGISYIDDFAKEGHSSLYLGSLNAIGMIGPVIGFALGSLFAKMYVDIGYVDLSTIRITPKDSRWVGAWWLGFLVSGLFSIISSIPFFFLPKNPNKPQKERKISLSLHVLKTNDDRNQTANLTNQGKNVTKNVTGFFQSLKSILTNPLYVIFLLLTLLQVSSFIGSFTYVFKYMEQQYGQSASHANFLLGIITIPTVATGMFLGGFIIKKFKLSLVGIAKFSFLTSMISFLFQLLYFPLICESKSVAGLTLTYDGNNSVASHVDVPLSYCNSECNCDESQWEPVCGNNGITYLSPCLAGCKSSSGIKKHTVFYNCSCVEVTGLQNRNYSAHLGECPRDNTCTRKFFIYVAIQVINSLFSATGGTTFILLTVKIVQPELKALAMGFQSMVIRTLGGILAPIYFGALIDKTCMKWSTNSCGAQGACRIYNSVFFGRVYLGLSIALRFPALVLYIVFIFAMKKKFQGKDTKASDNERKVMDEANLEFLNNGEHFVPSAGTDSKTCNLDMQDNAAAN
- Method summary: Drug uptake ratio assessed as enzyme-mediated uptake in HEK293 cells expressing human OATP1B3 at 10 uM at 37 degC for 3 mins cells pretreated with sodium butyrate by liquid scintillation spectroscopy relative to wild type
- Format: ADME, cell-based

| Compound | Experimental system | Recorded measurement |
| --- | --- | --- |
| C[C@]12CC[C@@H]3c4ccc(O)cc4CC[C@H]3[C@@H]1CC[C@@H]2O[C@@H]1O[C@H](C(=O)O)[C@@H](O)[C@H](O)[C@H]1O [ESTRADIOL 17B GLUCURONIDE] | OATP1B3 (Homo sapiens, UniProt Q9NPD5) | 78 |

Give uptake ratio at 0.05 h, 10 µM for all compounds that follow.
1. CC(C)c1nc(N(C)S(C)(=O)=O)nc(-c2ccc(F)cc2)c1/C=C/[C@@H](O)C[C@@H](O)CC(=O)O
2. Cc1ncc2n1-c1ccc(Cl)cc1C(c1ccccc1F)=NC2

Reply:
1: 25; 2: 1.9
